TGI for assorted compounds
- Tested on: SNB-75 CNS
- measurement-protocol: NCI tumour cell line growth inhibition, 48 h
Supply the numeric figure in µM, leaving out any unit text.

Given item CCCCCCc1cc2cc(C(=O)Nc3cccc(C(F)(F)F)c3)c(=N)oc2cc1O , the value recorded as its TGI is 3.01

Next:
Given item O=C1c2cccc3cc4ccccc4c(c23)C(=O)N1CCCNCCNCCCN1C(=O)c2cccc3cc4ccccc4c(c23)C1=O , the value recorded as its TGI is 1.48

----------
GI50 for assorted compounds
- System: SF-539 CNS
- measurement-protocol: NCI tumour cell line growth inhibition, 48 h

Given item CNCc1ccc(C)c(NC(=O)c2ccc(Nc3nc(-c4ccccc4)c4ccccc4n3)cc2)c1 , the value recorded as its GI50 is 1.82 µM

Given item C=CC(=O)N1CC[C@@H](Oc2nc(Nc3ccc(N4CCC(N5CCN(C)CC5)CC4)cc3)c(C(N)=O)nc2CC)C1 , the value recorded as its GI50 is > 100 µM

Given item Cc1ccc(S(=O)(=O)NC(CCCCN)C(=O)CCl)cc1 (centres undefined) , the value recorded as its GI50 is 22.3 µM

Next:
Given item COC(=O)c1cc2c([nH]c3ccccc32)c(-c2nc3cc(N(S(=O)(=O)c4ccc(C)cc4)S(=O)(=O)c4ccc(C)cc4)c(OC)cc3cc2CO)n1 , the value recorded as its GI50 is 56.1 µM

----------
- System: SK-OV-3 ovarian
- measurement-protocol: NCI tumour cell line growth inhibition, 48 h
Would you please tag the item TRUE when its TGI is 20 µM or above, and FALSE when it is below?

Exam item: # check: TGI of COc1ccc(-c2nccn2-c2cc(OC)c(OC)c(OC)c2)cc1 is greater than or equal to 20 µM
Marked response: TRUE

Exam item: # check: TGI of N=C(N)c1ccc(-c2ccc(-c3ccc(Cl)cc3)s2)s1 is greater than or equal to 20 µM
Marked response: FALSE

Exam item: # check: TGI of Cc1nn(-c2ccccc2)c2ncc3c(c12)C(=O)N(Cc1ccccc1)C3=O is greater than or equal to 20 µM
Marked response: TRUE

Exam item: # check: TGI of O=C(O)CCCCCNC(=O)CCC(CN(CC(=O)OCc1ccccc1)CC(=O)OCc1ccccc1)N(CC(=O)OCc1ccccc1)CC(=O)OCc1ccccc1 (stereo unspecified) is greater than or equal to 20 µM
Marked response: TRUE

Exam item: # check: TGI of O=c1n(CCO)nc2n1CCCN2 is greater than or equal to 20 µM
Marked response: TRUE

Exam item: # check: TGI of CCCCCCCCCCCCCCCCCc1nc(C#N)c(N)o1 is greater than or equal to 20 µM
Marked response: TRUE

Exam item: # check: TGI of O=C1N[C@@H](c2c[nH]c3ccc(Br)cc23)C(=O)N[C@H]1c1c[nH]c2ccc(Br)cc12 is greater than or equal to 20 µM
Marked response: TRUE

Exam item: # check: TGI of CCOC(=O)C1C(=O)C=C(c2cc(C)ccc2O)CC1c1cccc(Br)c1 (stereo unspecified) is greater than or equal to 20 µM
Marked response: TRUE

----------
TGI for assorted compounds
- System: HCT-116 colon
- measurement-protocol: NCI tumour cell line growth inhibition, 48 h

Given item Cc1nn(C(=O)CC(=O)Nc2ccccc2Cl)c(C)c1N=Nc1ccccc1Cl , the value recorded as its TGI is > 100 µM

Given item O=C(C(=O)n1ccc2ccccc21)c1c[nH]c2ccccc12 , the value recorded as its TGI is > 10 µM

Given item C=CC(=O)N1CC[C@@H](Oc2nc(Nc3ccc(N4CCC(N5CCN(C)CC5)CC4)cc3)c(C(N)=O)nc2CC)C1 , the value recorded as its TGI is > 100 µM

Next:
Given item CC(=O)OC1C(OC/C2=C/C3[C@@H](C(C)C)CC=C(C)[C@@H]3CC(OC(=O)/C=C/c3cn(C)cn3)[C@]3(C)C=C[C@@]2(O)O3)OCC(O)C1O (some centres undefined) , the value recorded as its TGI is > 50 µM

Given item Cc1ccc(CCNC(=S)SCC(NC(=O)CCC(N)C(=O)O)C(=O)NCC(=O)O)cc1 (centres undefined) , the value recorded as its TGI is 6.26 µM

Given item Cn1c(N)cc(=O)nc1N , the value recorded as its TGI is > 100 µM
